Test system: CCRF-CEM leukemia
Test: NCI-60 one-dose screen, 48 h
Settings: 10 µM unless noted
This is part of a sample that, as a whole, favours compounds with a hit. Of some 83,000 tested, about 20% had one in any assay. Activity calls are given as the source filed them. The calls were made as follows: active = growth percent below 10; inactive = the rest.
Outcome (select one): Yes = active, No = inactive

// query Just curious, what result did N#Cc1c(N)nc2c(c1N)C(c1ccc(Cl)cc1)C1=C(CCCC1=O)N2c1sc2c(c1C#N)CCCC2 (stereo not drawn) get here?
// result Yes

---

Test system: DU-145 prostate
Assay: NCI-60 one-dose screen, 48 h (100 = growth as untreated, 0 = no growth, -100 = all killed)
Conditions: 10 µM unless noted
Protocol: Cells are grown in 96 well plates and exposed to the test compound for 48 hours. Compounds are tested at a single concentration, which is 10^-5 M for most compounds. The reported endpoint is percent growth (GI% or GIPRCNT), where numbers from 0 - 100% represent growth inhibition, and numbers from -100% - 0 represent cell death. For example, a value of 40 represents 60% growth inhibition. A value of 0 means no net growth occurred over the course of the experiment. […]
About 83,000 compounds went through this panel and 20% of them were active in at least one assay; those are over-represented in the sample as a whole.
Field: label. Allowed values: Condition met (growth < 50%) or Condition not met (growth >= 50%).

Use the examples below as a reference point.
- Compound: "COc1cc(Nc2ncccc2C(=O)Nc2nc3ccc(F)cc3s2)cc(OC)c1OC"
  Class Assignment: "Condition not met"
- Compound: "ClC1c2ccccc2CCc2ccccc21"
  Class Assignment: "Condition not met"
- Compound: "COc1cc2c(cc1OCCCCC(=O)Nc1ccc(-c3nc4ccccc4s3)cc1)N=C[C@@H]1CCCN1C2=O"
  Class Assignment: "Condition met"
- Compound: "O=C(NC(=S)Nc1ccc(Cl)cc1)c1ccccc1"
  Class Assignment: "Condition not met"
- Compound: "O=C(COc1ccc(Cl)cc1Cl)N1N=C(c2ccc(Cl)cc2Cl)CC1(O)c1cc(F)c(Cl)cc1Cl (stereo not given)"
  Class Assignment: "Condition not met"
- Compound: "O=S1(=O)N(CCNc2nccc(-c3c(-c4cccc(O)c4)nc4sccn34)n2)CCN1Cc1ccccc1"
  Class Assignment: "Condition not met"

// query Identify whether the compound C#C[C@@]1(O)[C@@H](CO)O[C@@H](n2cc(C(F)(F)F)c3c(N)ncnc32)[C@@H]1O records growth below 50%.
// result Condition met

// query Identify whether the compound Nn1c(CN2CCN(c3cc4c(cc3F)c(=O)c(C(=O)O)cn4C3CC3)CC2)n[nH]c1=S records growth below 50%.
// result Condition not met

// query Identify whether the compound C=CCn1c(SCC(=O)Nc2ccc(C(=O)/C=C/c3cc(OC)c(OC)c(OC)c3)cc2)nnc1-c1ccc(OC)cc1 records growth below 50%.
// result Condition met
